B1: Chromodomain-helicase-DNA-binding protein 5, residues 338 to 390; numbered along this chain, Q8TDI0 (parent)
chain: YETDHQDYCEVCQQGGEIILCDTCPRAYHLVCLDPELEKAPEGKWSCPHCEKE

Variants of: B1
Assay: abundance fitness (aPCA) (normalised: wild type 0, dead -1); higher = more abundant; growth selection in yeast, the domain comes from the species named
Settings: Homo sapiens
Answer no if abundance fitness is under -0.09, and yes if it is -0.09 or more.

Observe how each entry below is paired with its result.
E42R yes
H49G yes

API: above_or_equal(metric=abundance fitness, cutoff=-0.09) for item K44A
no

API: above_or_equal(metric=abundance fitness, cutoff=-0.09) for item C50Y
no

API: above_or_equal(metric=abundance fitness, cutoff=-0.09) for item S46K
no

API: above_or_equal(metric=abundance fitness, cutoff=-0.09) for item C32N
no

API: above_or_equal(metric=abundance fitness, cutoff=-0.09) for item L33E
no

API: above_or_equal(metric=abundance fitness, cutoff=-0.09) for item E36Q
yes

API: above_or_equal(metric=abundance fitness, cutoff=-0.09) for item G43T
yes

API: above_or_equal(metric=abundance fitness, cutoff=-0.09) for item C21D
no

API: above_or_equal(metric=abundance fitness, cutoff=-0.09) for item S46M
no

API: above_or_equal(metric=abundance fitness, cutoff=-0.09) for item C50H
yes

API: above_or_equal(metric=abundance fitness, cutoff=-0.09) for item D34I
no

API: above_or_equal(metric=abundance fitness, cutoff=-0.09) for item C21M
no

API: above_or_equal(metric=abundance fitness, cutoff=-0.09) for item I19A
yes

API: above_or_equal(metric=abundance fitness, cutoff=-0.09) for item K52E
no

API: above_or_equal(metric=abundance fitness, cutoff=-0.09) for item C24S
no

API: above_or_equal(metric=abundance fitness, cutoff=-0.09) for item L33H
yes

API: above_or_equal(metric=abundance fitness, cutoff=-0.09) for item P48H
no

API: above_or_equal(metric=abundance fitness, cutoff=-0.09) for item C32Y
no

API: above_or_equal(metric=abundance fitness, cutoff=-0.09) for item W45A
no

These measurements were taken from the Human Domainome abundance scans (Beltran et al. 2025).
